Settings: in acetonitrile, 323.15 K
REPORTED PROPERTY: solubility (mole fraction)
// no unit, no text: just the number

CC(=O)N(CC(O)CO)c1c(I)c(C(=O)NCC(O)CO)c(I)c(C(=O)NCC(O)CO)c1I (stereo unspecified) yielded solubility (mole fraction) of 0.000354

----------
Settings: in acetonitrile, 308.15 K
REPORTED PROPERTY: solubility (mole fraction)
// no unit, no text: just the number

CC(=O)N(CC(O)CO)c1c(I)c(C(=O)NCC(O)CO)c(I)c(C(=O)NCC(O)CO)c1I (stereo unspecified) yielded solubility (mole fraction) of 0.00021

----------
Conditions: in toluene, 313.15 K
REPORTED PROPERTY: solubility (mole fraction)
// no unit, no text: just the number

CC(=O)N(CC(O)CO)c1c(I)c(C(=O)NCC(O)CO)c(I)c(C(=O)NCC(O)CO)c1I (stereo unspecified) yielded solubility (mole fraction) of 9.19e-05

----------
Conditions: in acetonitrile, 288.15 K
REPORTED PROPERTY: solubility (mole fraction)
// no unit, no text: just the number

CC(=O)N(CC(O)CO)c1c(I)c(C(=O)NCC(O)CO)c(I)c(C(=O)NCC(O)CO)c1I (stereo unspecified) yielded solubility (mole fraction) of 0.000101

----------
Conditions: in cyclohexane, 298.15 K
REPORTED PROPERTY: solubility (mole fraction)
// no unit, no text: just the number

CC(=O)N(CC(O)CO)c1c(I)c(C(=O)NCC(O)CO)c(I)c(C(=O)NCC(O)CO)c1I (stereo unspecified) yielded solubility (mole fraction) of 2e-05

----------
Conditions: in 1,4-dioxane, 293.15 K
REPORTED PROPERTY: solubility (mole fraction)
// no unit, no text: just the number

CC(=O)N(CC(O)CO)c1c(I)c(C(=O)NCC(O)CO)c(I)c(C(=O)NCC(O)CO)c1I (stereo unspecified) yielded solubility (mole fraction) of 6.9e-05

----------
Conditions: in 1,4-dioxane, 313.15 K
REPORTED PROPERTY: solubility (mole fraction)

CC(=O)N(CC(O)CO)c1c(I)c(C(=O)NCC(O)CO)c(I)c(C(=O)NCC(O)CO)c1I (stereo unspecified) yielded solubility (mole fraction) of 0.000145

----------
Conditions: in DMSO, 308.15 K
REPORTED PROPERTY: solubility (mole fraction)
// no unit, no text: just the number

CC(=O)N(CC(O)CO)c1c(I)c(C(=O)NCC(O)CO)c(I)c(C(=O)NCC(O)CO)c1I (stereo unspecified) yielded solubility (mole fraction) of 0.00051

----------
Conditions: in n-butanol, 288.15 K
REPORTED PROPERTY: solubility (mole fraction)
// no unit, no text: just the number

CC(=O)N(CC(O)CO)c1c(I)c(C(=O)NCC(O)CO)c(I)c(C(=O)NCC(O)CO)c1I (stereo unspecified) yielded solubility (mole fraction) of 0.000287

----------
Conditions: in 1,4-dioxane, 318.15 K
REPORTED PROPERTY: solubility (mole fraction)
// no unit, no text: just the number

CC(=O)N(CC(O)CO)c1c(I)c(C(=O)NCC(O)CO)c(I)c(C(=O)NCC(O)CO)c1I (stereo unspecified) yielded solubility (mole fraction) of 0.000174

----------
Conditions: in 2-butanone, 298.15 K
REPORTED PROPERTY: solubility (mole fraction)
// no unit, no text: just the number

CC(=O)N(CC(O)CO)c1c(I)c(C(=O)NCC(O)CO)c(I)c(C(=O)NCC(O)CO)c1I (stereo unspecified) yielded solubility (mole fraction) of 0.000255

----------
Settings: in ethanol, 293.15 K
REPORTED PROPERTY: solubility (mole fraction)
// no unit, no text: just the number

CC(=O)N(CC(O)CO)c1c(I)c(C(=O)NCC(O)CO)c(I)c(C(=O)NCC(O)CO)c1I (stereo unspecified) yielded solubility (mole fraction) of 0.00148

----------
Conditions: in acetonitrile, 313.15 K
REPORTED PROPERTY: solubility (mole fraction)
// no unit, no text: just the number

CC(=O)N(CC(O)CO)c1c(I)c(C(=O)NCC(O)CO)c(I)c(C(=O)NCC(O)CO)c1I (stereo unspecified) yielded solubility (mole fraction) of 0.00025

----------
Details: in acetonitrile, 293.15 K
REPORTED PROPERTY: solubility (mole fraction)

CC(=O)N(CC(O)CO)c1c(I)c(C(=O)NCC(O)CO)c(I)c(C(=O)NCC(O)CO)c1I (stereo unspecified) yielded solubility (mole fraction) of 0.000123

----------
Settings: in toluene, 318.15 K
REPORTED PROPERTY: solubility (mole fraction)
// no unit, no text: just the number

CC(=O)N(CC(O)CO)c1c(I)c(C(=O)NCC(O)CO)c(I)c(C(=O)NCC(O)CO)c1I (stereo unspecified) yielded solubility (mole fraction) of 0.000112

----------
Details: in ethyl acetate, 293.15 K
REPORTED PROPERTY: solubility (mole fraction)
// no unit, no text: just the number

CC(=O)N(CC(O)CO)c1c(I)c(C(=O)NCC(O)CO)c(I)c(C(=O)NCC(O)CO)c1I (stereo unspecified) yielded solubility (mole fraction) of 0.00018

----------
Details: in ethanol, 303.15 K
REPORTED PROPERTY: solubility (mole fraction)
// no unit, no text: just the number

CC(=O)N(CC(O)CO)c1c(I)c(C(=O)NCC(O)CO)c(I)c(C(=O)NCC(O)CO)c1I (stereo unspecified) yielded solubility (mole fraction) of 0.00192

----------
Conditions: in ethanol, 313.15 K
REPORTED PROPERTY: solubility (mole fraction)
// no unit, no text: just the number

CC(=O)N(CC(O)CO)c1c(I)c(C(=O)NCC(O)CO)c(I)c(C(=O)NCC(O)CO)c1I (stereo unspecified) yielded solubility (mole fraction) of 0.00244

----------
Settings: in acetonitrile, 283.15 K
REPORTED PROPERTY: solubility (mole fraction)
// no unit, no text: just the number

CC(=O)N(CC(O)CO)c1c(I)c(C(=O)NCC(O)CO)c(I)c(C(=O)NCC(O)CO)c1I (stereo unspecified) yielded solubility (mole fraction) of 8.47e-05

----------
Settings: in n-butanol, 293.15 K
REPORTED PROPERTY: solubility (mole fraction)
// no unit, no text: just the number

CC(=O)N(CC(O)CO)c1c(I)c(C(=O)NCC(O)CO)c(I)c(C(=O)NCC(O)CO)c1I (stereo unspecified) yielded solubility (mole fraction) of 0.000342

----------
Conditions: in acetone, 313.15 K
REPORTED PROPERTY: solubility (mole fraction)
// no unit, no text: just the number

CC(=O)N(CC(O)CO)c1c(I)c(C(=O)NCC(O)CO)c(I)c(C(=O)NCC(O)CO)c1I (stereo unspecified) yielded solubility (mole fraction) of 0.000526

----------
Conditions: in toluene, 323.15 K
REPORTED PROPERTY: solubility (mole fraction)
// no unit, no text: just the number

CC(=O)N(CC(O)CO)c1c(I)c(C(=O)NCC(O)CO)c(I)c(C(=O)NCC(O)CO)c1I (stereo unspecified) yielded solubility (mole fraction) of 0.000134

----------
Conditions: in ethanol, 308.15 K
REPORTED PROPERTY: solubility (mole fraction)
// no unit, no text: just the number

CC(=O)N(CC(O)CO)c1c(I)c(C(=O)NCC(O)CO)c(I)c(C(=O)NCC(O)CO)c1I (stereo unspecified) yielded solubility (mole fraction) of 0.00217

----------
Settings: in 1,4-dioxane, 288.15 K
REPORTED PROPERTY: solubility (mole fraction)
// no unit, no text: just the number

CC(=O)N(CC(O)CO)c1c(I)c(C(=O)NCC(O)CO)c(I)c(C(=O)NCC(O)CO)c1I (stereo unspecified) yielded solubility (mole fraction) of 5.7e-05

----------
Settings: in cyclohexane, 318.15 K
REPORTED PROPERTY: solubility (mole fraction)
// no unit, no text: just the number

CC(=O)N(CC(O)CO)c1c(I)c(C(=O)NCC(O)CO)c(I)c(C(=O)NCC(O)CO)c1I (stereo unspecified) yielded solubility (mole fraction) of 4.81e-05

----------
Details: in DMSO, 298.15 K
REPORTED PROPERTY: solubility (mole fraction)
// no unit, no text: just the number

CC(=O)N(CC(O)CO)c1c(I)c(C(=O)NCC(O)CO)c(I)c(C(=O)NCC(O)CO)c1I (stereo unspecified) yielded solubility (mole fraction) of 0.000357

----------
Conditions: in acetone, 283.15 K
REPORTED PROPERTY: solubility (mole fraction)

CC(=O)N(CC(O)CO)c1c(I)c(C(=O)NCC(O)CO)c(I)c(C(=O)NCC(O)CO)c1I (stereo unspecified) yielded solubility (mole fraction) of 0.000174

----------
Details: in 2-butanone, 303.15 K
REPORTED PROPERTY: solubility (mole fraction)
// no unit, no text: just the number

CC(=O)N(CC(O)CO)c1c(I)c(C(=O)NCC(O)CO)c(I)c(C(=O)NCC(O)CO)c1I (stereo unspecified) yielded solubility (mole fraction) of 0.000301
